Origin of the recorded values: paper PMC4364671

biological target: HjProR (Haloarcula japonica); construct: full length, N-terminal His6 tag kept (pETDuet-1), E. coli; dimer; possible partial proteolysis; test: chiral HPLC of NBD-F derivatives, racemase activity
Sequence (M0LMI3 entry or part of it): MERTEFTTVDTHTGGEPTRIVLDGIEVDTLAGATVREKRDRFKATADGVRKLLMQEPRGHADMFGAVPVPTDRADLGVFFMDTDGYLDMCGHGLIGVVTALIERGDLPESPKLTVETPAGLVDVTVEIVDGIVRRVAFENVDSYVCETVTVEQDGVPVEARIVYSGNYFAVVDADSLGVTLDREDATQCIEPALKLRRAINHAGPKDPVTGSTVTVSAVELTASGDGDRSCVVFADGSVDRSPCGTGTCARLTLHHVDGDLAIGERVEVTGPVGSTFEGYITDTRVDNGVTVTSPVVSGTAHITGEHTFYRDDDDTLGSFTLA
assay_readout: IC50 (µM)
# output: bare number, implied unit µM

Req: // returns reported IC50 for input O=C(O)c1ccc[nH]1 [pyrrole-2-carboxylate]
Resp: 295
